- Tested on: NOMO1
- experimental_protocol: cell viability relative to DMSO control; higher = less cytotoxic
- experimental_conditions: RPMI 5 mM glucose + 10% dialyzed FBS; 48 h; 0.569 µM
measure: cell viability
Please answer using the number first and the unit second.

Ask | Using NOMO1 as the test system, report measured cell viability of COc1cc2ncn(-c3cc(OCc4ccccc4C(F)(F)F)c(C(N)=O)s3)c2cc1OC .
Reply | 117%

Ask | Using NOMO1 as the test system, report measured cell viability of COc1cc2c(Nc3ccc(Cl)c(Cl)c3F)ncnc2cc1OC[C@@H]1C[C@@H]2CN(C)C[C@@H]2C1 .
Reply | 107%

Ask | Using NOMO1 as the test system, report measured cell viability of C[N+]1(C)[C@@H]2CC(OC(=O)C(O)(c3cccs3)c3cccs3)C[C@H]1[C@@H]1O[C@@H]12 (stereo partly drawn) .
Reply | 106%

Ask | Using NOMO1 as the test system, report measured cell viability of CCOCC(O)COc1ccc(NC(=O)CC[S+](C)C)cc1 (stereo not drawn) .
Reply | 86.3%

Ask | Using NOMO1 as the test system, report measured cell viability of NC[C@H]1O[C@H](O[C@H]2[C@H](O)[C@@H](O[C@H]3O[C@H](CO)[C@@H](O)[C@H](N)[C@H]3O)[C@H](N)C[C@@H]2N)[C@H](N)C[C@@H]1O .
Reply | 94.3%

Ask | Using NOMO1 as the test system, report measured cell viability of Cc1ccc(/C=N/NC(=O)c2ccccc2Oc2ccccc2)o1 .
Reply | 95.6%

Ask | Using NOMO1 as the test system, report measured cell viability of N=C(N)Nc1ccc(C(=O)Oc2ccc3cc(C(=N)N)ccc3c2)cc1 .
Reply | 79.4%

Ask | Using NOMO1 as the test system, report measured cell viability of CCCCCN(CCC12CC3CC(CC(C3)C1)C2)C(=O)NCCCc1ccncc1 .
Reply | 116%

###

- Tested on: P12-Ichikawa
- experimental_protocol: cell viability relative to DMSO control; higher = less cytotoxic
- experimental_conditions: RPMI 5 mM glucose + 10% dialyzed FBS; 48 h; 5.12 µM
measure: cell viability (%)
The reply should be a number in %, with the unit left off.

Ask | Using P12-Ichikawa as the test system, report measured cell viability of Cn1cnc([N+](=O)[O-])c1Sc1ncnc2nc[nH]c12 .
Reply | 63.2

Ask | Using P12-Ichikawa as the test system, report measured cell viability of C1COC(NC(C2CC2)C2CC2)=N1 .
Reply | 91.6

Ask | Using P12-Ichikawa as the test system, report measured cell viability of O=[S+]([O-])(NCCNC/C=C/c1ccc(Br)cc1)c1cccc2cnccc12 .
Reply | 95.8

Ask | Using P12-Ichikawa as the test system, report measured cell viability of COc1cc2c(Nc3ccc(Cl)c(Cl)c3F)ncnc2cc1OC[C@@H]1C[C@@H]2CN(C)C[C@@H]2C1 .
Reply | 113

Ask | Using P12-Ichikawa as the test system, report measured cell viability of CN1CCN(CCCN2c3ccccc3Sc3ccc(Cl)cc32)CC1.O=C(O)/C=C\C(=O)O.O=C(O)/C=C\C(=O)O .
Reply | 104

Ask | Using P12-Ichikawa as the test system, report measured cell viability of O=C(NCc1ccccc1)c1csc(Nc2ccncn2)n1 .
Reply | 36

Ask | Using P12-Ichikawa as the test system, report measured cell viability of NC[C@H]1O[C@H](O[C@H]2[C@H](O)[C@@H](O[C@H]3O[C@H](CO)[C@@H](O)[C@H](N)[C@H]3O)[C@H](N)C[C@@H]2N)[C@H](N)C[C@@H]1O .
Reply | 91

Ask | Using P12-Ichikawa as the test system, report measured cell viability of CC(C)n1cnc2c(NCCc3ccc(O)cc3)nc(-c3csc4ccccc34)nc21 .
Reply | 130

Ask | Using P12-Ichikawa as the test system, report measured cell viability of OC[C@H]1OC(OC2=CC3=C(C(=C2)O)C(=O)\C(=C/O3)C4=CC=C(O)C=C4)[C@H](O)[C@@H](O)[C@@H]1O (stereo not given in full) .
Reply | 71.7

Ask | Using P12-Ichikawa as the test system, report measured cell viability of Nc1nc(N)c(N=O)c(OCC2CCCCC2)n1 .
Reply | 59

Values from the supplement of paper PMC11451515
